# study.system: KAT-8 (Homo sapiens (Human))
# Sequence (Q9H7Z6 other isoform, or with tags, fused parts or gaps): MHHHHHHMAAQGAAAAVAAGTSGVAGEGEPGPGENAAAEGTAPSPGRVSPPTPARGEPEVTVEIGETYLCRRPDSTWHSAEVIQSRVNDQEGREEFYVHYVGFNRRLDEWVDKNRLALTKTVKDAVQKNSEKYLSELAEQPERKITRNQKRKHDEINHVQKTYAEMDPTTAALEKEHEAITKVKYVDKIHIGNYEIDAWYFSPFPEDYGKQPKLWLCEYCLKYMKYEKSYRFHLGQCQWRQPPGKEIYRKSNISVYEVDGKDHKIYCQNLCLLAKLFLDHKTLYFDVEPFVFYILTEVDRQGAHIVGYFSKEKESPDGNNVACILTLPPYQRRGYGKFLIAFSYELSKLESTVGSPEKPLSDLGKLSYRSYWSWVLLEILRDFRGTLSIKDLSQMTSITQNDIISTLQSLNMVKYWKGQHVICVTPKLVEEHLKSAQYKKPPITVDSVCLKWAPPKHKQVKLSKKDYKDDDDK
# assay.explanation: KAT-8 biochemical inhibition assay (SAMDI mass spectrometry)
// IC50 lookup, one value per entry

Completed entries (count: 3):
Cn1cnc(-c2cc(Cl)c(F)c(C(=O)NNS(=O)(=O)c3ccc(Cl)cc3)c2)c1 [Compound I-323]    10 to 50 µM
Cn1cnc(-c2cc(Cl)c(F)c(C(=O)NNS(=O)(=O)CC3CCC(NC(=O)N4CCCCC4)C3)c2)c1 (centres unmarked) [Compound I-345]    10 to 50 µM
Cc1cc(-c2cn(C)cn2)cc(C(=O)NNS(=O)(=O)CC2CCCNC2)c1F (centres unmarked) [Compound I-133]    > 100 µM

Challenge: // query IC50 value for entry CNC(=S)N1CC[C@H](CS(=O)(=O)NNC(=O)c2cc(-c3cn(C)cn3)cc(Cl)c2F)C1 [Compound I-172]
Response given: 10 to 50 µM

Challenge: Could you tell me which IC50 is on file for Cn1cnc(-c2cc(Cl)c(F)c(C(=O)NNS(=O)(=O)CC34CCC(CC3)CC4)c2)c1 [Compound I-334] ?
Response given: 10 to 50 µM

Challenge: What measured IC50 goes with CN(C)C(=O)N[C@H]1C[C@H](CS(=O)(=O)NNC(=O)c2cc(-c3cn(C)cn3)cc(Cl)c2F)C1 [Compound I-180] ?
Response given: 10 to 50 µM

Challenge: Reported IC50 for Cn1cnc(-c2cc(Cl)c(F)c(C(=O)NNS(=O)(=O)CC3CCCOC3)c2)c1 (centres unmarked) [Compound I-273] : what is it?
Response given: 10 to 50 µM

Challenge: I'd like to know its IC50. The compound in question is COc1ccc(CNC(=O)N2CC(CS(=O)(=O)NNC(=O)c3cc(-c4cn(C)cn4)cc(Cl)c3F)C2)cc1 [Compound I-203]
Response given: 10 to 50 µM

---

# study.system: KAT-7 (Homo sapiens (Human), UniProt O95251)
# Sequence (O95251 other isoform, or with tags, fused parts or gaps): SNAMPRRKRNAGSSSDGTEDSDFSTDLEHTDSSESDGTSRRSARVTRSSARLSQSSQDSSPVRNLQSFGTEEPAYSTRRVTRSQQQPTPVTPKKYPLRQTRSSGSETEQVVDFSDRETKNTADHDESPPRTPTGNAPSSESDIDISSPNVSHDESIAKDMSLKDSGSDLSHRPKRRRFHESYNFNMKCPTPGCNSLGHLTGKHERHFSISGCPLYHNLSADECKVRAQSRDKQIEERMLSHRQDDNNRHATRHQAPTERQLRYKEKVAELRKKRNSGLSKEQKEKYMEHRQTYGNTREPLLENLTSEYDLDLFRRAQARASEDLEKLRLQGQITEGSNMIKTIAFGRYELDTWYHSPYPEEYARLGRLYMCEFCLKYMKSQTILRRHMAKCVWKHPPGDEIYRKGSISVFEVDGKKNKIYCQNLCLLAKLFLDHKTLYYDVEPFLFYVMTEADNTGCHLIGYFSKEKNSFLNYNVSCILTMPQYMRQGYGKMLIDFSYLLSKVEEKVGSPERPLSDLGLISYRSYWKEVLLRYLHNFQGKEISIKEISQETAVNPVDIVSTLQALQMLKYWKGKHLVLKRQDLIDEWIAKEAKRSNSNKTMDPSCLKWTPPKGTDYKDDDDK
# assay.explanation: KAT-7 biochemical inhibition assay (SAMDI mass spectrometry)
# settings: Table 5
Let's look at some compounds and their measured IC50.

Solved cases (5 shown):
Cc1cccc(-c2cc(Cl)c(F)c(C(=O)NNS(=O)(=O)CC3CNC3)c2)c1    10 to 50 µM
Cc1cccc(-c2cc(Cl)c(F)c(C(=O)NNS(=O)(=O)CC3CN(C(=O)OC(C)(C)C)C3)c2)c1    ≤ 10 µM
Cc1cccc(-c2cc(Cl)c(F)c(C(=O)NNS(=O)(=O)CC3CCCCN(C(=O)OC(C)(C)C)C3)c2)c1 (stereo not drawn)    ≤ 1 µM
Cc1cccc(-c2cc(Cl)c(F)c(C(=O)NNS(=O)(=O)CC3CN(C(=O)OC(C)(C)C)CCN3C(=O)OC(C)(C)C)c2)c1 (stereo not drawn)    10 to 50 µM
COc1cccc(S(=O)(=O)NNC(=O)c2cc(-c3ccccc3)cc(Cl)c2F)c1    ≤ 1 µM

Challenge: Item under review: CNCCCS(=O)(=O)NNC(=O)c1cc(-c2cccc(C)c2)cc(Cl)c1F . Reported IC50?
Response given: > 100 µM

Challenge: Recorded IC50 of O=C(NNS(=O)(=O)c1cccc(O)c1)c1cc(-c2ccccc2)cc(Cl)c1F , please.
Response given: ≤ 1 µM

Challenge: Which IC50 is listed for Cc1cccc(-c2cc(Cl)c(F)c(C(=O)NNS(=O)(=O)C(C)C3CCCN(C(=O)OC(C)(C)C)C3)c2)c1 (stereo not drawn) ?
Response given: ≤ 1 µM

Challenge: Give its IC50 value. Item: Cc1cccc(-c2cc(Cl)c(F)c(C(=O)NNS(=O)(=O)CC3CCCCNC3)c2)c1 (stereo not drawn)
Response given: ≤ 10 µM

Challenge: Given the compound CNCCCS(=O)(=O)NNC(=O)c1cc(-c2cccc(C)c2)ccc1F , what is its reported IC50?
Response given: > 100 µM

Challenge: Sample Cc1cc(-c2cccc(F)c2)cc(C(=O)NNS(=O)(=O)c2cccc(O)c2)c1F — what was its IC50?
Response given: ≤ 1 µM

Challenge: Fill in the blank: the reported IC50 of Cc1cccc(-c2cc(Cl)c(F)c(C(=O)NNS(=O)(=O)CC3CNCCN3C)c2)c1 (stereo not drawn) is ____.
Response given: 10 to 50 µM
